Origin of the recorded values: PubChem BioAssay AID1159580

Assay: chemical genetic growth profiling, strain panel (AID 1159580);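 note: tested at 20 µM; growth read once vehicle control cultures reached saturation at 30 °C; 1 = growth at the plate median or of vehicle wells; lower values mean less growth of the strain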
Conditions: S. cerevisiae deletion strains, growth OD, locus YMR129W
Among all 5,500 compounds or so, about 2,000 (36%) were called active. Not shown: some 18% with an inconclusive outcome. Cut-off read from the data, not from the text of the source: active = normalized growth mostly below about 0.91 (no sharp cut-off); inconclusive = no clear call, values can overlap the other calls; inactive = mostly above about 0.92. Some of the results follow.
Classes used: 1 = active, -1 = inactive

[
  {
    "compound": "COc1ccc(-c2oc3ccccc3c(=O)c2O)cc1OC",
    "label": 1
  },
  {
    "compound": "NC(=O)N1c2ccccc2C=Cc2ccccc21",
    "label": -1
  },
  {
    "compound": "CNS(=O)(=O)Cc1ccc2[nH]cc(CCN(C)C)c2c1",
    "label": -1
  },
  {
    "compound": "CC(=O)[C@@]1(O)CCC2C3CCC4=CC(=O)CC[C@]4(C)C3CC[C@@]21C (some centres undefined)",
    "label": -1
  },
  {
    "compound": "C#CC1(O)CCC2C3CCC4=CC(=O)CCC4(C)C3CCC21C (centres undefined)",
    "label": -1
  },
  {
    "compound": "CN(C)CCc1c[nH]c2ccc(CS(=O)(=O)N3CCCC3)cc12",
    "label": -1
  },
  {
    "compound": "CC(=O)OCC(=O)[C@@]12OC3(CCCC3)O[C@@H]1CC1C3CCC4=CC(=O)C=C[C@]4(C)[C@@]3(F)[C@@H](O)C[C@@]12C (some centres undefined)",
    "label": -1
  },
  {
    "compound": "Cc1cc(=O)n(-c2ccccc2)n1C",
    "label": -1
  },
  {
    "compound": "CC(=O)OCC(=O)[C@@]1(O)CCC2C3CCC4=CC(=O)CC[C@]4(C)C3[C@@H](O)C[C@@]21C (some centres undefined)",
    "label": -1
  }
]

----------
Experiment: chemical genetic growth profiling, strain panel (AID 1159580);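 note: tested at 20 µM; growth read once vehicle control cultures reached saturation at 30 °C; 1 = growth at the plate median or of vehicle wells; lower values mean less growth of the strain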
Conditions: S. cerevisiae deletion strains, growth OD, locus YNL222W, strain SSU72, hits give low values
The whole screen tested about 5,500 compounds, of which about 2,000 (36%) were called active. Roughly 18% stayed inconclusive and do not appear here. This is one part of the list.

[
  {
    "smilesNotation": "Cc1ccc(OCc2n[nH]c(=S)n2Cc2ccccc2)c2c1CCC2",
    "normalized growth": 0.986
  },
  {
    "smilesNotation": "CSc1nnc(COc2ccc(C)c3c2CCC3)n1-c1ccccc1",
    "normalized growth": 0.985
  },
  {
    "smilesNotation": "Clc1ccc(N/N=C\\c2sccc2Oc2ccccc2)cc1",
    "normalized growth": 0.966
  }
]

----------
Assay: chemical genetic growth profiling, strain panel (AID 1159580);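 note: tested at 20 µM; growth read once vehicle control cultures reached saturation at 30 °C; 1 = growth at the plate median or of vehicle wells; lower values mean less growth of the strain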
Conditions: S. cerevisiae deletion strains, growth OD, locus YOR184W, strain ser1, hits give low values
The campaign covered roughly 5,500 compounds. About 2,000 (36%) were called active. Not shown: some 18% with an inconclusive outcome. The list shows a part of the results.
Output 1 (yes) for records whose normalized growth is lower than 1, 0 (no) for records at or above 1.

[
  {
    "molecule": "CC1=NN(c2ccccc2)C(=O)C1",
    "label": "1 (yes)"
  },
  {
    "molecule": "C#CC1(O)CCC2C3CCC4=CC(=O)CCC4(C)C3CCC21C (centres undefined)",
    "label": "1 (yes)"
  },
  {
    "molecule": "CCOc1ccc(C(=O)c2ccc(O)c(O)c2O)cc1",
    "label": "1 (yes)"
  },
  {
    "molecule": "C#C[C@]1(O)CCC2C3CCC4=Cc5oncc5C[C@]4(C)C3CC[C@@]21C (some centres undefined)",
    "label": "1 (yes)"
  },
  {
    "molecule": "C=C(C)[C@H]1Cc2c(ccc3c2O[C@@H]2COc4cc(OC)c(OC)cc4[C@@H]2C3=O)O1",
    "label": "1 (yes)"
  },
  {
    "molecule": "COc1ccc([C@H]2COc3c(ccc(O)c3OC)C2)c(OC)c1O",
    "label": "1 (yes)"
  },
  {
    "molecule": "O=c1c(O)c(-c2ccc(O)c(O)c2)oc2cc(O)ccc12",
    "label": "1 (yes)"
  },
  {
    "molecule": "COc1ccc(C(=O)c2ccc(O)cc2)c(O)c1O",
    "label": "0 (no)"
  },
  {
    "molecule": "C[C@]12CCC(=O)C=C1CCC1C2C(=O)C[C@@]2(C)C1CC[C@]2(O)C(=O)CO (some centres undefined)",
    "label": "0 (no)"
  }
]
